Cited source: ChEMBL document CHEMBL1153781

- Tested on: Plasma
- Protocol conditions: human
Outcome measure: fu
Number only, no unit.

What does the record list as fu for NC(=O)c1cnccn1 [PYRAZINAMIDE] ? 0.9

Lookup `CN/C(=N/CCSCc1nc[nH]c1C)NC#N` 0.81

Lookup `COc1cc(Cc2cnc(N)nc2N)cc(OC)c1OC` 0.63

Lookup COC(=O)C1=C(C)NC(C)=C(C(=O)OCCN(C)Cc2ccccc2)C1c1cccc([N+](=O)[O-])c1 (stereo unspecified) 0.05

Lookup `C[C@]12C=CC(=O)C=C1CC[C@H]1[C@@H]3C[C@@H](O)[C@](O)(C(=O)CO)[C@@]3(C)C[C@H](O)[C@@]12F` 0.32

Lookup CC(C)(C)NCC(O)c1ccc(O)c(CO)c1 (stereo unspecified) 0.93

* * *

# log10(Vd) listing for each entry below
- Assay text: clinical
- Protocol conditions: human, in vivo
// units: L/kg (pre-log); metric: Vd; scale: log10

>  <Molecule>
CC(=O)[C@@]1(O)CC[C@H]2[C@@H]3C[C@H](C)C4=CC(=O)CC[C@]4(C)[C@H]3CC[C@@]21C

>  <Outcome measure>
log10(Vd)

>  <Result value>
0.67

$$$$
>  <Molecule>
CCCC(C)C1(CC)C(=O)NC(=O)NC1=O (stereo unspecified) [PENTOBARBITAL]

>  <Outcome measure>
log10(Vd)

>  <Result value>
0.00

$$$$
>  <Molecule>
CCC(C)(C)C(=O)O[C@H]1C[C@@H](C)C=C2C=C[C@H](C)[C@H](CC[C@@H]3C[C@@H](O)CC(=O)O3)[C@H]21 [SIMVASTATIN]

>  <Outcome measure>
log10(Vd)

>  <Result value>
-0.01

$$$$
>  <Molecule>
CCS(=O)(=O)CCn1c([N+](=O)[O-])cnc1C [TINIDAZOLE]

>  <Outcome measure>
log10(Vd)

>  <Result value>
-0.15

$$$$

What does the record list as log10(Vd) for CC(=O)CC(c1ccccc1)c1c(O)c2ccccc2oc1=O (stereo unspecified) [WARFARIN] ? -0.85

Lookup `CCOC(=O)[C@H](CCc1ccccc1)N[C@@H](C)C(=O)N1CCC[C@H]1C(=O)O` 0.23
